Taken from paper PMC7686577.

measurementTarget: mutant IDH1^R132H (Homo sapiens, UniProt O75874, R132H)
Sequence (O75874 whole entry R132H): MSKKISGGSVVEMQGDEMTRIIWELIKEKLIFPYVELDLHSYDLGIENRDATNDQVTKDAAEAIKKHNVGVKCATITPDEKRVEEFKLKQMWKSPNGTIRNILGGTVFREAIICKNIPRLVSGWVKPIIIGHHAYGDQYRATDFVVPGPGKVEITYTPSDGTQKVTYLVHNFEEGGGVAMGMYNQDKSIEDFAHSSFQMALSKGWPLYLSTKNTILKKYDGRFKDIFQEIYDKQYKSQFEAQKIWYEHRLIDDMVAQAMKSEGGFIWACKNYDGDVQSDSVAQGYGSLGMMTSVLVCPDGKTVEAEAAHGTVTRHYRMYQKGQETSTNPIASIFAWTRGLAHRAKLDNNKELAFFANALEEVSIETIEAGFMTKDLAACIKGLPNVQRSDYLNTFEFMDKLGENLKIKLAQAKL
procedureSummary: IDH1^R132H enzymatic assay (diaphorase/resazurin readout of NADPH)

[
  {
    "structureSmiles": "COc1ccc(C(=O)[C@@H](Cn2cncn2)[C@H](Sc2ccccc2)c2ccccc2)cc1",
    "measurementTarget": "mutant IDH1^R132H (Homo sapiens, UniProt O75874, R132H)",
    "IC50, µM": 20.8
  },
  {
    "structureSmiles": "CCC[C@@H]1N=C2c3ccccc3N=C(S[C@@H](CC)C(=O)Nc3cccc(Cl)c3)N2C1=O",
    "measurementTarget": "mutant IDH1^R132H (Homo sapiens, UniProt O75874, R132H)",
    "IC50, µM": 41.9
  },
  {
    "structureSmiles": "O=C1C[C@H](C(=O)N(CCc2ccccc2)Cc2ccccc2)CN1Cc1cccc(Br)c1",
    "measurementTarget": "mutant IDH1^R132H (Homo sapiens, UniProt O75874, R132H)",
    "IC50, µM": 23.8
  },
  {
    "structureSmiles": "O=C(Cc1ccc(N(Cc2ccccc2)C(=O)c2cccc(F)c2)cc1)NCc1cccnc1",
    "measurementTarget": "mutant IDH1^R132H (Homo sapiens, UniProt O75874, R132H)",
    "IC50, µM": 42.9
  },
  {
    "structureSmiles": "O=C1CS[C@@H](c2cccc(NS(=O)(=O)c3ccc4ccccc4c3)c2)N1c1ccc(F)cc1",
    "measurementTarget": "mutant IDH1^R132H (Homo sapiens, UniProt O75874, R132H)",
    "IC50, µM": 50
  }
]

----------
measurementTarget: mutant IDH1^R132H (Homo sapiens, UniProt O75874, R132H)
procedureSummary: IDH1^R132H enzymatic assay (diaphorase/resazurin readout of NADPH)
Format: biochemical
protocolConditions: compound at 50 μM
Exam item: assign t to entries whose Inhibition ratio (%) 50 (μM) is below 60% and f to entries at or above 60%. Note that a value of exactly 60% receives f.

[
  {
    "molecule": "CCC[C@@H]1N=C2c3ccccc3N=C(S[C@@H](CC)C(=O)Nc3cccc(Cl)c3)N2C1=O [G568-0082]",
    "measurementTarget": "mutant IDH1^R132H (Homo sapiens, UniProt O75874, R132H)",
    "className": "t"
  },
  {
    "molecule": "O=C(Cc1ccc(N(Cc2ccccc2)C(=O)c2cccc(F)c2)cc1)NCc1cccnc1 [V016-3750]",
    "measurementTarget": "mutant IDH1^R132H (Homo sapiens, UniProt O75874, R132H)",
    "className": "t"
  },
  {
    "molecule": "O=C1C[C@H](C(=O)N(Cc2cccc3ccccc23)c2ccccn2)CN1Cc1ccccc1 [D491-0852]",
    "measurementTarget": "mutant IDH1^R132H (Homo sapiens, UniProt O75874, R132H)",
    "className": "t"
  },
  {
    "molecule": "O=C(NCc1ccc(C(F)(F)F)cc1)c1nnn(-c2ccccc2Cl)c1-c1cccnc1 [L806-0255]",
    "measurementTarget": "mutant IDH1^R132H (Homo sapiens, UniProt O75874, R132H)",
    "className": "f"
  },
  {
    "molecule": "O=C1C[C@H](C(=O)N(CCc2ccccc2)Cc2ccccc2)CN1Cc1cccc(Br)c1 [V015-1671]",
    "measurementTarget": "mutant IDH1^R132H (Homo sapiens, UniProt O75874, R132H)",
    "className": "f"
  },
  {
    "molecule": "COc1ccc(C(=O)[C@@H](Cn2cncn2)[C@H](Sc2ccccc2)c2ccccc2)cc1 [AQ-714/41674992]",
    "measurementTarget": "mutant IDH1^R132H (Homo sapiens, UniProt O75874, R132H)",
    "className": "f"
  }
]

----------
measurementTarget: mutant IDH1^R132H (Homo sapiens, UniProt O75874, R132H)
procedureSummary: IDH1^R132H enzymatic assay (diaphorase/resazurin readout of NADPH)

[
  {
    "structureSmiles": "CCOC(=O)c1[nH]c(C)c(CN(Cc2ccccc2)C(=O)[C@@H](C)Oc2ccccc2)c1C",
    "IC50 (µM)": 38
  },
  {
    "structureSmiles": "O=C(NCc1ccc(C(F)(F)F)cc1)c1nnn(-c2ccccc2Cl)c1-c1cccnc1",
    "IC50 (µM)": 28.3
  },
  {
    "structureSmiles": "CN(CC(=O)N1N=C(c2ccccc2Cl)C[C@H]1c1ccc2c(c1)OCO2)C(=O)C1CCCC1",
    "IC50 (µM)": 45.5
  },
  {
    "structureSmiles": "O=C1C[C@H](C(=O)N(Cc2cccc3ccccc23)c2ccccn2)CN1Cc1ccccc1",
    "IC50 (µM)": 46.9
  }
]

----------
measurementTarget: mutant IDH1^R132H (Homo sapiens, UniProt O75874, R132H)
procedureSummary: IDH1^R132H enzymatic assay (diaphorase/resazurin readout of NADPH)
Format: biochemical
protocolConditions: compound at 50 μM
quantityKind: Inhibition ratio (%) 50 (μM)

[
  {
    "structureSmiles": "CN(CC(=O)N1N=C(c2ccccc2Cl)C[C@H]1c1ccc2c(c1)OCO2)C(=O)C1CCCC1",
    "quantityKind": "Inhibition ratio (%) 50 (μM)",
    "displayUnit": "%",
    "endpointResult": 59.15
  },
  {
    "structureSmiles": "O=C1CS[C@@H](c2cccc(NS(=O)(=O)c3ccc4ccccc4c3)c2)N1c1ccc(F)cc1",
    "quantityKind": "Inhibition ratio (%) 50 (μM)",
    "displayUnit": "%",
    "endpointResult": 60.85
  },
  {
    "structureSmiles": "CCOC(=O)c1[nH]c(C)c(CN(Cc2ccccc2)C(=O)[C@@H](C)Oc2ccccc2)c1C",
    "quantityKind": "Inhibition ratio (%) 50 (μM)",
    "displayUnit": "%",
    "endpointResult": 61.15
  }
]
